The values you see were collected from paper PMC4190524.

experiment: Calculated solubilities in octanol, pH 7.4 buffer and acidic water; format: physicochemical; conditions: solubility in pH 7.4 phosphate buffer; calculated from log SOCT − log KOCT:7.4; data from Wenkers and Lippold 1999
Below: a set of entries, each annotated with reported log S7.4.
Response body: numeric value in mM, unit text excluded.

Answered cases to consult:
[
  {
    "COMPOUND": "CN1C(C(=O)Nc2ccccn2)=C(O)c2ccccc2S1(=O)=O",
    "ASSAY VALUE": 0.95
  },
  {
    "COMPOUND": "O=C(O)c1cc(-c2ccc(F)cc2F)ccc1O",
    "ASSAY VALUE": 1.61
  },
  {
    "COMPOUND": "CC(C)Cc1ccc(C(C)C(=O)O)cc1 (stereo not shown)",
    "ASSAY VALUE": 2.02
  }
]

Data request: Look up log S7.4: CC(=O)Oc1ccccc1C(=O)O
Data returned: 5.18

Data request: Could you share which log S7.4 value was measured for O=C(O)c1ccccc1Nc1cccc(C(F)(F)F)c1 ?
Data returned: 0.31

Data request: I have this compound here, COc1ccc2cc(CCC(C)=O)ccc2c1 , and I need its recorded log S7.4.
Data returned: −1.12

Data request: For the compound O=C(O)Cc1ccccc1Nc1c(Cl)cccc1Cl , what log S7.4 is on record?
Data returned: −0.09
